- experiment_summary: A549 cell cytotoxicity, dose response, cytotoxicity control, plate reader, cherry-pick, antagonist series (AID 743412)
- Type: functional, cell-based
The source made the active and inactive calls. Cut-off read from the data, not from the text of the source: actives have a measured AC50 and inactives only a lower limit.
Your response should consist of one outcome taken from y (active), n (inactive)

Req: Answer briefly: the call reported for Cc1ccc(C)c(S(=O)(=O)N(C(=O)c2ccncc2)c2ccc(OC(=O)c3ccncc3)cc2)c1 in this assay.
Resp: n

Req: For this molecule, state the assay outcome: C[C@H]1CN([C@@H](C)CO)C(=O)c2cc(C#CCc3ccccc3)cnc2O[C@H]1CN(C)Cc1ccccc1
Resp: y

Req: Hi team, can someone confirm the assay call for CC1(C)CC(NC(=O)c2ccc(Cl)c(S(=O)(=O)N(Cc3ccccc3)c3ccccc3)c2)CC(C)(C)N1 ?
Resp: y

Req: Which outcome did this test record for the molecule CN1CCN(c2ccc(NC(=O)c3sc4ccccc4c3Cl)cc2)CC1 ?
Resp: y

The reported numbers originate from ChEMBL document CHEMBL1201862.
